- PROTOCOL SUMMARY: NCI Yeast Anticancer Drug Screen. Data for the cln2 rad14 strain (AID 165);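 note: 0% = growth equal to vehicle treated cultures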
- CONDITION LABEL: S. cerevisiae cln2 rad14 strain, at 5.0 µM (retest, dose inferred, filed as 0.5), active compounds read high
Compounds without any hit were thinned out: in the full panel of roughly 79,000, 15% have a hit.
MEASUREMENT LABEL: growth inhibition (%)
Write it as a number; the unit % goes unstated.

-- ask growth inhibition lookup needed for C=C1C(=O)C23CC[C@H]4C(C)(CCC[C@]4(C)C(=O)O)[C@@H]2CCC1C3 (stereo partly specified) , thanks.
-- reply 72

-- ask growth inhibition lookup needed for Cc1c2c(c(C)c3c4c(oc13)CCCC4)C=NCC2 , thanks.
-- reply -46

-- ask growth inhibition lookup needed for COC(=O)C1=CCC[C@H]2C1(C)CCC(C)C21CC(c2ccoc2)OC1=O (stereo partly specified) , thanks.
-- reply -16

-- ask growth inhibition lookup needed for O=S(=O)(Nc1cccc(C2=NCCN2)c1)c1ccc2c(S(=O)(=O)Nc3cccc(C4=NCCN4)c3)cccc2c1 , thanks.
-- reply -1

-- ask growth inhibition lookup needed for O=C1C(=O)C(CCCO)(CCCO)CCCCCCCCC1(CCCO)CCCO , thanks.
-- reply 6

-- ask growth inhibition lookup needed for CSCSCC(CO)NC(=O)/C=C/c1c(C)[nH]c(=O)[nH]c1=O (stereo unspecified) , thanks.
-- reply -3

-- ask growth inhibition lookup needed for O=[N+]([O-])c1cccc2c1[nH]c1c(-c3ccccc3)nccc12 , thanks.
-- reply 0

-- ask growth inhibition lookup needed for CCCCCCCCCCCCCCCCCCOC(=O)Nc1ccc(C)c(NC(=O)OCCCCCCCCCCCCCCCCCC)c1 , thanks.
-- reply 0

-- ask growth inhibition lookup needed for CCOc1ccc2nc([NH-])sc2c1.CCOc1ccc2nc([NH-])sc2c1.CCOc1ccc2nc([NH-])sc2c1.CCOc1ccc2nc([NH-])sc2c1.[Cl][Rh][Cl] , thanks.
-- reply -5

-- ask growth inhibition lookup needed for CCOC(=O)/N=C(\N)SCc1ccccc1 , thanks.
-- reply -7

-- ask growth inhibition lookup needed for CCCCN(CCCC)CC(O)c1cc(-c2ccc(Cl)cc2)nc2c(Cl)cccc12 (stereo unspecified) , thanks.
-- reply -3

-- ask growth inhibition lookup needed for Clc1cc(Cl)c2cc3cccc[n+]3cc2c1Cl , thanks.
-- reply 4

-- ask growth inhibition lookup needed for CC(=O)OC1CCC2(C)C(=CCC3C2CCC2(C)C(C(C)N)CCC32)C1 (stereo unspecified) , thanks.
-- reply -62

-- ask growth inhibition lookup needed for O=NN(CCCl)C(=O)NCCSSCCNC(=O)N(CCCl)N=O (tested in a mixture with another compound) , thanks.
-- reply 14

-- ask growth inhibition lookup needed for COc1ccc2c(c1)C=C([N+](=O)[O-])C(C1OC(C)(C)OC1C1COC(C)(C)O1)O2 (stereo unspecified) , thanks.
-- reply 19

-- ask growth inhibition lookup needed for COC(=O)CS(=O)(=O)CCS(=O)(=O)CC(=O)OC , thanks.
-- reply -1

-- ask growth inhibition lookup needed for O=c1c2ccccc2nc(-c2ccccc2)n1NC(=S)Nc1ccc(Cl)cc1[N+](=O)[O-] , thanks.
-- reply 8

-- ask growth inhibition lookup needed for CCCN(CCC)C(=O)c1nc(N)nc(-c2ccc(OC)cc2)c1-c1ccc(OC)cc1 , thanks.
-- reply 0

-- ask growth inhibition lookup needed for C=C1C(=O)O[C@@H]2CC(CO)=C([C@@H](C)CCCO)[C@@H](OC(=O)/C(C)=C\C)[C@H]12 , thanks.
-- reply 1

-- ask growth inhibition lookup needed for CCCCN1C(=O)C[C@H]2[C@@H]3CCc4cc(OCCN5CCCC5)ccc4[C@H]3CC[C@]2(C)C1=O , thanks.
-- reply 33

-- ask growth inhibition lookup needed for Oc1ccc(Cc2ccccc2)cc1Cl , thanks.
-- reply -4

-- ask growth inhibition lookup needed for COC(=O)C(=[N+]=[N-])C(=O)c1ccc(Cl)cc1 , thanks.
-- reply 0

-- ask growth inhibition lookup needed for S=c1[nH]c(-c2ccccc2)cs1 , thanks.
-- reply -15

-- ask growth inhibition lookup needed for C[n+]1cc2c3ccccc3ccc2c2ccccc21 , thanks.
-- reply 26

-- ask growth inhibition lookup needed for Cc1ccc(S(=O)(=O)NNC2Oc3cc4c(cc3C(c3ccccc3O)C2C)OCO4)cc1 (stereo unspecified) , thanks.
-- reply 19

-- ask growth inhibition lookup needed for NC(=O)c1cccn1Cc1ccccc1SSc1ccccc1Cn1cccc1C(N)=O , thanks.
-- reply 16

-- ask growth inhibition lookup needed for CCCCCCCCCCCCCC(=O)NO , thanks.
-- reply 89

-- ask growth inhibition lookup needed for Cc1c2c(c(C)c3c1sc1ccccc13)CCN=C2 , thanks.
-- reply -21

-- ask growth inhibition lookup needed for CCOC(=O)C(Cc1cn(S(=O)(=O)c2ccccc2)c2ccccc12)(NC(C)=O)C(=O)OCC , thanks.
-- reply 15

-- ask growth inhibition lookup needed for CC1(C)CC(=O)C(c2ccccc2[N+](=O)[O-])=C(O)C1 , thanks.
-- reply 5

-- ask growth inhibition lookup needed for O=[N+]([O-])c1cc(Cc2cc([N+](=O)[O-])c3cccnc3c2O)c(O)c2ncccc12 , thanks.
-- reply 65

-- ask growth inhibition lookup needed for COc1ccc(C2SC(N)=Nc3c2c(C)nn3C(=O)c2ccccc2O)cc1OC (stereo unspecified) , thanks.
-- reply -20

-- ask growth inhibition lookup needed for OC1CCN(c2c3ccccc3nc3ccccc23)CC1 , thanks.
-- reply 24

-- ask growth inhibition lookup needed for CC(C)C1=CC(=O)C2=C(CCC3C(C)(C(=O)O)CCC[C@]23C)C1=O (stereo partly specified) , thanks.
-- reply 15

-- ask growth inhibition lookup needed for CCCCCCCCCCCCCCCCOCC(Cl)COP(=O)(O)OP(=O)(O)OCC1OC(n2cc(C)c(=O)[nH]c2=O)CC1O (stereo unspecified) , thanks.
-- reply 22

-- ask growth inhibition lookup needed for CC(C)NCC=C=Nc1ccccc1 , thanks.
-- reply -2

-- ask growth inhibition lookup needed for C=C1C(=O)O[C@@H]2C[C@@]3(C)CCC[C@H](C)C3=C[C@H]12 , thanks.
-- reply 6

-- ask growth inhibition lookup needed for Nc1nnc2nc(C(C(=O)c3ccccc3Cl)c3nc4nnc(N)n4[nH]c3=O)c(=O)[nH]n12 , thanks.
-- reply -1

-- ask growth inhibition lookup needed for O=C1c2cccc(S(=O)(=O)O)c2C(=O)c2cccc([N+](=O)[O-])c21 , thanks.
-- reply -1

-- ask growth inhibition lookup needed for COc1cccc(C2c3cc4c(cc3OC(NNc3ccccc3)C2C)OCO4)c1OC (stereo unspecified) , thanks.
-- reply 11

-- ask growth inhibition lookup needed for C/C=C/C=C/C(=O)Nc1ccc([N+](=O)[O-])cc1 , thanks.
-- reply -9

* * *

- PROTOCOL SUMMARY: NCI Yeast Anticancer Drug Screen. Data for the bub3 strain (AID 167)
- CONDITION LABEL: S. cerevisiae bub3 mutant strain, at 50.0 µM, active compounds read high
The panel holds about 79,000 compounds, 15% with a hit somewhere; the sample as a whole holds those more often.
MEASUREMENT LABEL: growth inhibition (%)
Write it as a number; the unit % goes unstated.

-- ask growth inhibition lookup needed for CC(=O)Nc1ccc(C(C)(C)c2ccc(C)cc2)cc1 , thanks.
-- reply 57.5

-- ask growth inhibition lookup needed for CC[Si](CC)(CC)c1ccc(CCNCCS)s1 , thanks.
-- reply 98.4

-- ask growth inhibition lookup needed for CC(=O)C(=C(I)I)c1ccccc1 , thanks.
-- reply 33.4

-- ask growth inhibition lookup needed for CCN1C2=NC(=O)N(C)C(=O)C2(Cl)C(C(SC)S(=O)(=O)c2ccc(C)cc2)c2ccccc21 (stereo not given) , thanks.
-- reply 89.5

-- ask growth inhibition lookup needed for CNC1=C2NC(=O)/C(C)=C\C=C\C(C)C(O)C(C)C(O)C(C)C(OC(C)=O)C(C)C(OC)/C=C/OC3(C)Oc4c(C)c(O)c(c(c4C3=O)C1=O)C2=O (stereo not given) , thanks.
-- reply 52

-- ask growth inhibition lookup needed for COc1cc(-c2oc(C=Nc3ccccc3)c([N+](=O)[O-])c2-c2ccc(O)c(OC)c2)ccc1O , thanks.
-- reply -16.8

-- ask growth inhibition lookup needed for CCc1cccc(C)c1NC(=O)/C(Cl)=C(\Cl)C(=O)O , thanks.
-- reply 99.5

-- ask growth inhibition lookup needed for CCC[CH2][Sn]([CH2]CCC)([O]C(=O)c1cc(F)ccc1F)[O]C(=O)c1cc(F)ccc1F , thanks.
-- reply 79.2

-- ask growth inhibition lookup needed for Nc1ccc([N+](=O)[O-])cc1Nc1c2ccccc2nc2ccccc12 , thanks.
-- reply -43.4

-- ask growth inhibition lookup needed for C/C(=N\NC(=O)c1ccc([N+](=O)[O-])cc1)c1ccccc1 , thanks.
-- reply 38.8

* * *

- PROTOCOL SUMMARY: NCI Yeast Anticancer Drug Screen. Data for the sgs1 mgt1 strain (AID 161);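 note: 0% = growth of cultures given vehicle only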
- CONDITION LABEL: S. cerevisiae sgs1 mgt1 strain, at 50.0 µM, active compounds read high
The panel holds about 79,000 compounds, 15% with a hit somewhere; the sample as a whole holds those more often.
# thresholds on growth inhibition define classes: L: < 50%; M: ≥ 50% and < 90%; H: ≥ 90%

-- ask Which category does the recorded growth inhibition put CC1C(O)Oc2cc3c(cc2C1c1ccccc1O)OCO3 (stereo not given) in?
-- reply M

-- ask Which category does the recorded growth inhibition put O=S(=O)(c1ccc(NC(=S)NCc2ccncc2)cc1)N1CCCCC1 in?
-- reply L

-- ask Which category does the recorded growth inhibition put N#CCC(=O)N/N=C(/CC1(O)C(=O)Nc2c(Cl)cc(Cl)cc21)c1ccccc1 (stereo not given) in?
-- reply M

-- ask Which category does the recorded growth inhibition put Cc1ccc(/C=N/NS(=O)(=O)c2ccccc2)c(C)c1 in?
-- reply L

-- ask Which category does the recorded growth inhibition put Brc1ccc2[nH]c3ccccc3c2c1 in?
-- reply M

-- ask Which category does the recorded growth inhibition put COC(=O)C1=C(C(=O)OC)C2(C)OC1C(=O)C21CC1 (stereo not given) in?
-- reply M

-- ask Which category does the recorded growth inhibition put Nc1cc(=O)[nH]c(=S)[nH]1.[Pd] in?
-- reply L

-- ask Which category does the recorded growth inhibition put CN1CCCCC1c1cc2c3ccccc3ccn2c1-c1ccccc1 (stereo not given) in?
-- reply H

-- ask Which category does the recorded growth inhibition put Cc1ccccc1C(O)(c1ccccc1C)C1(O)CCN(C)CC1 in?
-- reply H

-- ask Which category does the recorded growth inhibition put NC(=O)N/N=C1/CC2CCCCC2c2ccccc21 (stereo not given) in?
-- reply M

-- ask Which category does the recorded growth inhibition put COC(=O)c1n[nH]c(C(C)C)c1N=NN(C)C in?
-- reply H

-- ask Which category does the recorded growth inhibition put CC(=O)N1c2ccccc2Sc2ccc(C(=O)CCl)cc21 in?
-- reply H

-- ask Which category does the recorded growth inhibition put CC(CN(C)C)C(=O)/C=C/c1ccc(C(C)C)cc1 (stereo not given) in?
-- reply H

-- ask Which category does the recorded growth inhibition put COc1cccc(C2c3cc4c(cc3OC(NNc3ccccc3)C2C)OCO4)c1OC (stereo not given) in?
-- reply L

-- ask Which category does the recorded growth inhibition put C/C(=N\NC(=O)c1ccc([N+](=O)[O-])cc1)c1ccccc1 in?
-- reply L

-- ask Which category does the recorded growth inhibition put NCCCN1c2ccccc2Sc2ccc(Cl)cc21 in?
-- reply L

-- ask Which category does the recorded growth inhibition put CCCCCC(Oc1ccc(Cl)cc1)C(=O)O (stereo not given) in?
-- reply M

-- ask Which category does the recorded growth inhibition put CC(=O)Nc1ccc2c(c1)C(S)c1ccccc1-2 (stereo not given) in?
-- reply L

-- ask Which category does the recorded growth inhibition put CCOC(=O)c1[nH]c2c([N+](=O)[O-])cccc2c1[N+](=O)[O-] in?
-- reply H

-- ask Which category does the recorded growth inhibition put CC(C)(C)C(=O)OC(N)/C=C/c1ccccc1 (stereo not given) in?
-- reply M

-- ask Which category does the recorded growth inhibition put O=C(O)/C=C/C(=O)c1ccccc1 in?
-- reply L
